- target: fIL, fluorescently labelled H14 foldamer IL
- protocol-details: fluorescence polarisation; direct FP: S100 protein diluted in 50 nM labeled foldamer, 20 mM HEPES pH 7.5, 150 mM NaCl, 1 mM CaCl2, 0.5 mM TCEP, 0.01% Tween20; quadratic fit (ProFit); detection threshold Kd 1 mM
pKd: −log10 of the molar value.
measure-name: pKd

Worked set:
[
  {
    "binder": "S100A11 (natural protein) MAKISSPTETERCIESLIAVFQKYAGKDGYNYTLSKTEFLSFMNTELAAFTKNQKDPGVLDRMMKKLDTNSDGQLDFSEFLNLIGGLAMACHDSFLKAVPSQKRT",
    "pKd": "< 3.00"
  },
  {
    "binder": "S100P (natural protein) MTELETAMGMIIDVFSRYSGSEGSTQTLTKGELKVLMEKELPGFLQSGKDKDAVDKLLKDLDANGDAQVDFSEFIVFVAAITSACHKYFEKAGLK",
    "pKd": 3.48
  }
]

Continue with the next binder.
Report measured pKd; entry is S100A9 (natural protein) MTCKMSQLERNIETIINTFHQYSVKLGHPDTLNQGEFKELVRKDLQNFLKKENKNEKVIEHIMEDLDTNADKQLSFEEFIMLMARLTWASHEKMHEGDEGPGHHHKPGLGEGTP < 3.00
